Compiled from multiple publications: IC50 readings for UniProt:P08049.
Sequence (P08049 whole entry): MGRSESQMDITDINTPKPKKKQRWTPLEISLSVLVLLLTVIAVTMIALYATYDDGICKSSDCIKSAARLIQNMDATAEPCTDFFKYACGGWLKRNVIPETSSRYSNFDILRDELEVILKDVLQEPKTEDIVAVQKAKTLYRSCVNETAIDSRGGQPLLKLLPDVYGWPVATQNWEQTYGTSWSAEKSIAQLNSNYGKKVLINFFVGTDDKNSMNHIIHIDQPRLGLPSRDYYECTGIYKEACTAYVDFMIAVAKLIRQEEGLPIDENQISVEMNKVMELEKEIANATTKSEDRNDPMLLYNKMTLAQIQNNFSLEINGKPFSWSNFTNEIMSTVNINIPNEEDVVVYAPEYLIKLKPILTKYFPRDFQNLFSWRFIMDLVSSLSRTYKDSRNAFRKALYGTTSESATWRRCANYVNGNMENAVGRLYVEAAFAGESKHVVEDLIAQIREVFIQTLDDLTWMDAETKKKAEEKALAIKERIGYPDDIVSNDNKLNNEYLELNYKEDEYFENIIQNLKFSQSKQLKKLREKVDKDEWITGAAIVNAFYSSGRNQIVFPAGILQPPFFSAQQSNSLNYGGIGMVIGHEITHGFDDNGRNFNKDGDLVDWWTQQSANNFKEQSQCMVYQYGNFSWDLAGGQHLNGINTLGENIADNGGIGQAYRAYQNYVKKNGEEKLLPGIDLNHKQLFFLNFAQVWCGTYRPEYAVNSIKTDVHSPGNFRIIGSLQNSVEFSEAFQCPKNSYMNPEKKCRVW
MEASURED PARAMETER: IC50 (nM)

Recorded results for 2 compounds are shown here.
{"columns": ["COMPOUND", "ASSAY TARGET", "IC50, nM"],
 "data": [
  ["CC[C@H](C)[C@H](S)C(=O)N[C@H](C(=O)N[C@@H](Cc1ccc(O)cc1)C(=O)O)C(C)C", "UniProt:P08049", 5.3],
  ["CC(C)[C@H](NC(=O)[C@@H](S)CCc1ccccc1)C(=O)N[C@@H](Cc1ccc(O)cc1)C(=O)O", "UniProt:P08049", 10]
]}

a. C[C@H](NC(=O)[C@H](Cc1ccccc1)NC(=O)CS)C(=O)O
b. CC(NC(=O)C(Cc1ccccc1)C(S)CCc1ccccc1)C(=O)O (stereo not given)
c. COc1ccccc1[C@H]1CC[C@@H](C(=O)O)N1C(=O)CNC(=O)[C@@H](S)Cc1ccc(O)cc1
Request: Ranking field: IC50; order: falling. Answer format: the labels, ordered as requested.
Result: b, a, c
